# target or system: T1, mature human TGF-β1 (human, UniProt P01137 279-390)
# T1 construct: Bought protein (R&D Systems, Cat # 240-B/CF); also called TGF Beta 1; TGF-b1
# T1 sequence (P01137 279-390 limits assumed): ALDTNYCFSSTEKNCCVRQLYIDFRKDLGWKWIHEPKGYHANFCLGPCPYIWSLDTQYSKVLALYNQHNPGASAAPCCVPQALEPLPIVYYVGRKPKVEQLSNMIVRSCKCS
# test description: BIAcore 2000 SPR, antibody captured on Protein A, TGF-β injected
# Experimental: Alternate methods of measuring kinetic constants are known, for example: affinity of an invention antibody for TGF-β1 (R&D Systems, Cat # 240-B/CF), TGF-β2 (RDI, Cat #RDI-1035), and TGF-β3 (RDI, Cat # RDI-1036/CF) is measured by BIAcore® 2000. Binding affinity measurements for full-length monoclonal antibodies of the invention are determined using Biacore. […] Binding is evaluated using multiple analytical cycles. […]
property: kon

Problem: Supply reported kon belonging to this binder: mAb 12.4 (antibody, human IgG4 S228P, kappa, V domains shown, Full-length monoclonal antibody, made by linking the Fab to an IgG4 Fc region) VH: QVQLVQSGAEVKKPGASVKVSCKASGYTFTSYWMNWVRQAPGQGLEWMGQIFPALGSTNYGEMFEGRVTMTTDTSTSTAYMELRSLRSDDTAVYYCARGIGNYALDAMDYWGQGTLVTVSS VL: DIQMTQSPSSLSASVGDRVTITCRASESVDWWGNSFMHWYQQKPGKAPKLLIYLASNLESGVPSRFSGSGSGTDFTLTISSLQPEDFATYYCQQNIEDPLTFGGGTKVEIKR
Result: > 4e+07 M⁻¹ s⁻¹
